FYI, the data here is from PubChem BioAssay (NCATS).

- Experiment: Quantitative High-Throughput drug screen in 47 multiple myeloma cell lines against the NCATS MIPE library collection: KHM11_PLB cell viability assay (AID 1918962); note: nearly all actives have a fitted effect of over 35% in size
- Condition context: KHM11 myeloma cell viability, CellTiter-Glo ATP luminescence, 48 h; series mostly up to 45.8 µM
Results filed as inconclusive are left out. The source made the active and inactive calls. Calls come from the whole dose curve; as a rule, active = well fitted cell-killing curve with a large enough effect; inconclusive = small, poorly fitted or top-dose-only effect, or effect the other way; inactive = no such curve, though single readings can be large or run the other way.
Please state which outcome applies, choosing from active, inactive

Recorded results for 8 compounds are shown here.
>>> print(df.to_string())
                                   compound  assigned_label
0                           NNC(=O)c1ccncc1        inactive
1  COc1c(N2CCNC(C)C2)c(F)cc2c(=O)c(C(=O)O)cn(C3CC3)c12 (stereo unspecified)        inactive
2                  Cn1nnc2c(C(N)=O)ncn2c1=O        inactive
3  O=C(O)CSCC(=O)NC1CCSC1=O (stereo unspecified)        inactive
4  CCc1c2c(nc3ccc(OC(=O)N4CCC(N5CCCCC5)CC4)cc13)-c1cc3c(c(=O)n1C2)COC(=O)[C@]3(O)CC          active
5                        CCc1cc(C(N)=S)ccn1        inactive
6  CC(C)C1CCC(C(=O)N[C@H](Cc2ccccc2)C(=O)O)CC1 (stereo partly specified)        inactive
7       COc1ncnc(NS(=O)(=O)c2ccc(N)cc2)c1OC        inactive

Assay outcome for `COc1ccc2cc3[n+](cc2c1OC)CCc1cc2c(cc1-3)OCO2` : what was it?
active

Status in this test for `CC(C)C[C@H](NC(=O)[C@H](CCc1ccccc1)NC(=O)CN1CCOCC1)C(=O)N[C@@H](Cc1ccccc1)C(=O)N[C@@H](CC(C)C)C(=O)[C@@]1(C)CO1` ?
active

State the result this test recorded for `Nc1nc(=S)c2[nH]cnc2[nH]1` .
active

====

- Experiment: qHTS drug screen for cell cycle checkpoint inhibitors in PARPi-resistant BRCA-mutant ovarian cancer cell lines. (AID 1963452)
- Condition context: PEO1/OlaR viability, CellTiter-Glo luminescence, 96 h; measured here: PEO1 parental Z-AUC; stronger effect = lower value
Property name: Z-AUC

>>> df
                                   compound  property_name  result
0            CCCOc1ccc(C(=O)OCCN(CC)CC)cc1N          Z-AUC       1
1        OC(Cn1cncn1)(Cn1cncn1)c1ccc(F)cc1F          Z-AUC    0.99
2  Cc1ccc(S(=O)(=O)N[C@@H](Cc2ccccc2)C(=O)CCl)cc1          Z-AUC    1.44
3       COC(=O)Nc1nc2ccc(Sc3ccccc3)cc2[nH]1          Z-AUC  -0.935
4           Cc1nnc(NS(=O)(=O)c2ccc(N)cc2)s1          Z-AUC   0.997
5          CCCCCCNC(=O)n1cc(F)c(=O)[nH]c1=O          Z-AUC   0.601
6  CCOCC(O)COc1ccc(NC(=O)CC[S+](C)C)cc1 (stereo unspecified)          Z-AUC   0.893
7  CC(N)C12CC3CC(CC(C3)C1)C2 (stereo unspecified)          Z-AUC   0.571

Would you be so kind as to report Z-AUC for each listed record?
1. NS(=O)(=O)c1cc2c(cc1Cl)NC(C(Cl)Cl)NS2(=O)=O (stereo unspecified)
2. CCOc1cc(N)c(Cl)cc1C(=O)NCC1CN(Cc2ccc(F)cc2)CCO1 (stereo unspecified)

0.729
1.17

For `CCc1c2c(nc3ccc(OC(=O)N4CCC(N5CCCCC5)CC4)cc13)-c1cc3c(c(=O)n1C2)COC(=O)[C@]3(O)CC` , what is its reported Z-AUC?
-2.61
